tested on: SF-268 CNS; assay: NCI tumour cell line growth inhibition, 48 h; in the data active = GI50 below about 0.43 µM; inactive = the rest
Log the outcome using a class from active, inactive

Previously resolved entries follow.
>  <MOLECULE>
FC(F)(F)c1ccc2nc(-c3nc(-c4ccccc4)n4ccccc34)[nH]c2c1

>  <TARGET_SYSTEM>
SF-268 CNS

>  <CATEGORY_LABEL>
inactive

$$$$
>  <MOLECULE>
CCN1CCN(C(=O)[C@]23CC[C@@H](C)[C@H](C)[C@@H]2C2=CC[C@@H]4[C@@]5(C)C/C(=C/c6cccnc6)C(=O)C(C)(C)[C@@H]5CC[C@@]4(C)[C@]2(C)CC3)CC1

>  <TARGET_SYSTEM>
SF-268 CNS

>  <CATEGORY_LABEL>
inactive

$$$$
>  <MOLECULE>
COc1ccc(CN2CCc3c(Cl)nc(N)nc3C2=O)c(OC)c1

>  <TARGET_SYSTEM>
SF-268 CNS

>  <CATEGORY_LABEL>
inactive

$$$$
>  <MOLECULE>
CC(=O)O[C@@H]1C=CC(=O)C2(CC(=O)O[C@@H]2/C=C(\C)CCC=C(C)C)C1 (stereo partly drawn)

>  <TARGET_SYSTEM>
SF-268 CNS

>  <CATEGORY_LABEL>
inactive

$$$$
>  <MOLECULE>
Cc1ncc(C(=O)Nc2ccc(CN3CCN(C)CC3)c(C(F)(F)F)c2)cc1C#Cc1c(N)ncc2ccc(C#N)cc12

>  <TARGET_SYSTEM>
SF-268 CNS

>  <CATEGORY_LABEL>
inactive

$$$$
>  <MOLECULE>
COc1ccc([C@H]2c3cc(OC)c(OC)cc3C=C(C=O)C2CO)cc1OC (stereo partly drawn)

>  <TARGET_SYSTEM>
SF-268 CNS

>  <CATEGORY_LABEL>
inactive

$$$$
>  <MOLECULE>
CCCCc1ccc2nc(NC(=O)OC)[nH]c2c1

>  <TARGET_SYSTEM>
SF-268 CNS

>  <CATEGORY_LABEL>
active

$$$$

Kindly provide the recorded test outcome for the following molecule: Cc1cc2c(-c3nc4ccccc4[nH]3)c(O)c(O)cc2c(O)c1-c1c(C)cc2c(-c3nc4ccccc4[nH]3)c(O)c(O)cc2c1O
active

Measured values drawn from PubChem BioAssay (NCI) for this set.
